- Tested on: HEK-293T
- Protocol Description: Multiplex assay against HEK293T
- Assay type: toxicity, cell-based
- Conditions Used: human, 24 h, 1 µM, compound concentration 1 uM, replicate 2
Measured Metric: Total Cell Count
A bare number is all that is needed in reply.

Check out these entries, answers already filled in.
Cc1cccc(CN2CCN(C(c3ccccc3)c3ccc(Cl)cc3)CC2)c1.Cl.Cl (centres undefined): 221
O=C(c1cc2c(cc1F)OC(c1ccc(F)cc1)(c1ccc(Cl)cc1Cl)O2)N1CCOCC1 (centres undefined): 330
COc1cc(Nc2nccc(-c3cnn4nc(OC)ccc34)n2)cc(C(F)(F)F)c1: 252

Lookup: Endpoint output: Total Cell Count of "CC(C)NC(=O)N1CC[C@H](NC2=Nc3cc(F)ccc3N(CC(F)F)c3ccc(Cl)cc32)C1" . Value?
Found: 367

Lookup: # get_value(readout='Total Cell Count', item= CNC(=O)Nc1ccc2c(c1)[C@@]1(CC2)OC(=O)N(CC(=O)N(Cc2ccc(F)cc2)[C@@H](C)C(F)(F)F)C1=O [A-486] )
Found: 1891

Lookup: Given "C=CC(=O)Nc1cccc(Oc2nc(Nc3ccc(N4CCN(C)CC4)cc3OC)ncc2Cl)c1" , state its recorded Total Cell Count.
Found: 1188

Lookup: Fill blank: measured Total Cell Count of the compound "Cl.O=C(O)c1cc(-c2ccc(C3CCNCC3)cc2)c2ccc(-c3ccc(C(F)(F)F)cc3)cc2c1" is ____.
Found: 236

Lookup: Returns the measured Total Cell Count for the input compound. Input: CC(C)CC(=O)Nc1[nH]nc2c1CN(C(=O)C1CCN(C)CC1)C2(C)C [PHA-793887]
Found: 1935

Lookup: Could you share which Total Cell Count value was measured for "C=CC(=O)Nc1cccc(Sc2nc(Nc3ccc(N4CCN(C)CC4)cc3)ncc2Cl)c1" ?
Found: 914

----------
- Tested on: U2OS
- Protocol Description: Multiplex assay against U2OS
- Assay type: toxicity, cell-based
- Conditions Used: human, 24 h, 1 µM, compound concentration 1 uM, replicate 2
Measured Metric: Population Mitochondria Different-Phenotype (%)
Give a bare numeral; the unit % is implied.

Use these answered entries as a reference point.
CC1=C(C(=O)Nc2cc3cn[nH]c3cc2F)C(c2ccc(C(F)(F)F)cc2)CC(=O)N1 (stereo unspecified): 13
CCOC(=O)Nc1cc(-c2ccc(C)c(NS(C)(=O)=O)c2)nn2c(C)nnc12: 34
COC(=O)C1=C(C)NC(C)=C(C(=O)OCCCN2CCC(c3ccccc3)(c3ccccc3)CC2)[C@H]1c1cccc([N+](=O)[O-])c1 [NIGULDIPINE]: 100

Lookup: Reported Population Mitochondria Different-Phenotype (%) for U2OS, given "C=CC(=O)Nc1cccc(Sc2nc(Nc3ccc(N4CCN(C)CC4)cc3)ncc2Cl)c1" ?
Found: 100

Lookup: // lookup Population Mitochondria Different-Phenotype (%) | system=U2OS | key= "C=CC(=O)Nc1cccc(Oc2nc(Nc3ccc(N4CCN(C)CC4)cc3OC)ncc2Cl)c1"
Found: 93

Lookup: Write down the reported Population Mitochondria Different-Phenotype (%) of CCc1nn(CCCN2CCN(c3cccc(Cl)c3)CC2)c(=O)n1CCOc1ccccc1.Cl [NEFAZODONE HYDROCHLORIDE] , test system: U2OS.
Found: 15

Lookup: Request - read-out Population Mitochondria Different-Phenotype (%) | tested on U2OS | compound CCC1=C[C@@H]2C[N@](C1)Cc1c([nH]c3ccccc13)[C@@](C(=O)OC)(c1cc3c(cc1OC)N(C)[C@H]1[C@@](O)(C(=O)OC)[C@H](OC(C)=O)[C@]4(CC)C=CCN5CC[C@]31[C@@H]54)C2.O=C(O)C(O)C(O)C(=O)O.O=C(O)C(O)C(O)C(=O)O [VINORELBINE TARTRATE]
Found: 40

Lookup: Observed Population Mitochondria Different-Phenotype (%) on U2OS for "CNC(=O)Nc1ccc(-c2nc(N3CC4CCC(C3)O4)c3cnn(C4CCC5(CC4)OCCO5)c3n2)cc1" , please.
Found: 6

Lookup: Entry COc1cc2ncn(-c3cc(OCc4ccccc4C(F)(F)F)c(C(N)=O)s3)c2cc1OC [GW843682X] , system U2OS: what Population Mitochondria Different-Phenotype (%) was measured?
Found: 19

Lookup: Please state recorded Population Mitochondria Different-Phenotype (%) (tested on U2OS) of "CCc1ccc(OCc2ccccc2C(=O)Nc2ccc3nc(C)cc(N)c3c2)cc1.Cl"
Found: 90

Lookup: For the record CC(C)(C)NC[C@H](O)COc1nsnc1N1CCOCC1 [TIMOLOL] , what value of Population Mitochondria Different-Phenotype (%) is listed for U2OS?
Found: 18

Lookup: Provide the documented Population Mitochondria Different-Phenotype (%) with U2OS as the system for COc1ccc(-c2ccc3ncc4c(c3c2)n(-c2ccc(N3CCNCC3)c(C(F)(F)F)c2)c(=O)n4C)cn1.O=C(O)/C=C\C(=O)O [BGT-226]
Found: 91

Lookup: GET /values?readout=Population Mitochondria Different-Phenotype (%)&system=U2OS&item= Cc1cccc(CN2CCN(C(c3ccccc3)c3ccc(Cl)cc3)CC2)c1.Cl.Cl (stereo unspecified)
Found: 13

----------
- Tested on: HEK-293T
- Protocol Description: Multiplex assay against HEK293T
- Assay type: toxicity, cell-based
- Conditions Used: human, 12 h, 1 µM, compound concentration 1 uM, replicate 1
Measured Metric: Population Mitotic Cells (%)

CNC(=O)Nc1ccc(-c2nc(N3CC4CCC(C3)O4)c3cnn(C4CCC5(CC4)OCCO5)c3n2)cc1: 44%

Lookup: Form field - read-out: Population Mitotic Cells (%); system: HEK-293T; submitted item: Cc1ccccc1C(c1ccccc1C)N1C2CCC1CC(O)(c1ccccc1)C2 (centres undefined)
Found: 51%

Lookup: Lab note: need Population Mitotic Cells (%) for COc1ccc(-c2ccc3ncc4c(c3c2)n(-c2ccc(N3CCNCC3)c(C(F)(F)F)c2)c(=O)n4C)cn1.O=C(O)/C=C\C(=O)O [BGT-226] on HEK-293T, anyone have it?
Found: 29%

Lookup: Quick check: Population Mitotic Cells (%) on HEK-293T, item CCc1nn(CCCN2CCN(c3cccc(Cl)c3)CC2)c(=O)n1CCOc1ccccc1.Cl [NEFAZODONE HYDROCHLORIDE] ?
Found: 52%

----------
- Test system: HEK-293T
- Protocol Description: Multiplex assay against HEK293T
- Type: toxicity, cell-based
- Conditions Used: human, 48 h, 1 µM, compound concentration 1 uM, replicate 1
Overview of recorded Population Hoechst High Intensity Objects (%) for various compounds
The answer is to be given in %; state only the numeric part.

Cl.O=C(O)c1cc(-c2ccc(C3CCNCC3)cc2)c2ccc(-c3ccc(C(F)(F)F)cc3)cc2c1: 21
CC(C)c1noc(N2CCC(COc3ccc(-c4ccc(S(C)(=O)=O)cc4)nc3)CC2)n1: 14
Cc1c[nH]c2nccc(Oc3c(F)cc(Nc4cc(Cl)nc(N)n4)cc3F)c12: 9
CN1CCN(Cc2ccc(Nc3ncc(Cl)c(Nc4ccccc4S(=O)(=O)N(C)C)n3)cc2)CC1: 10

Lookup: Which Population Hoechst High Intensity Objects (%) is reported for this compound? Cc1ccc2c(c1)c1c(n2CCc2ccc(C)nc2)CCN(C)C1 [LATREPIRDINE]
Found: 10

Lookup: Sample "CC(C)(C)NC[C@H](O)COc1nsnc1N1CCOCC1" — what was its Population Hoechst High Intensity Objects (%)?
Found: 10

Lookup: Give its Population Hoechst High Intensity Objects (%) value. Item: CC1=C(C(=O)Nc2cc3cn[nH]c3cc2F)C(c2ccc(C(F)(F)F)cc2)CC(=O)N1 (centres undefined)
Found: 10

Lookup: Could you tell me which Population Hoechst High Intensity Objects (%) is on file for "COc1ccccc1CN[C@H]1C2CCN(CC2)[C@H]1C(c1ccccc1)c1ccccc1" ?
Found: 14

Lookup: Fill blank: measured Population Hoechst High Intensity Objects (%) of the compound "COc1cc(Nc2nccc(-c3cnn4nc(OC)ccc34)n2)cc(C(F)(F)F)c1" is ____.
Found: 21

----------
- Tested on: HEK-293T
- Protocol Description: Multiplex assay against HEK293T
- Format: toxicity, cell-based
- Conditions Used: human, 12 h, 1 µM, compound concentration 1 uM, replicate 2
Checkbox rule: Population Hoechst High Intensity Objects (%) lower than 3% = y; Population Hoechst High Intensity Objects (%) not lower than 3% = n.

CNC(=O)Nc1ccc(-c2nc(N3CC4CCC(C3)O4)c3cnn(C4CCC5(CC4)OCCO5)c3n2)cc1: n

Lookup: Does this compound meet the criterion Population Hoechst High Intensity Objects (%) < 3%? "C=CC(=O)Nc1cccc(Sc2nc(Nc3ccc(N4CCN(C)CC4)cc3)ncc2Cl)c1"
Found: n

Lookup: # TODO verify Population Hoechst High Intensity Objects (%) < 3% strictly for this compound: "O=c1cc(N2CCOCC2)oc2c(-c3cccc4c3sc3ccccc34)cccc12"
Found: n

Lookup: # check: Population Hoechst High Intensity Objects (%) < 3% for "CC(C)Oc1ccccc1C(=O)Nc1ccccc1C(=O)Nc1cccc(S(=O)(=O)C(F)(F)F)c1"
Found: n

Lookup: Does the reported Population Hoechst High Intensity Objects (%) of the following compound sit strictly below 3%? "COc1cc(Nc2nccc(-c3cnn4nc(OC)ccc34)n2)cc(C(F)(F)F)c1"
Found: y

Lookup: Please indicate whether the reported Population Hoechst High Intensity Objects (%) of "COC(=O)C1=C(C)NC(C)=C(C(=O)OCCCN2CCC(c3ccccc3)(c3ccccc3)CC2)[C@H]1c1cccc([N+](=O)[O-])c1" is strictly below 3%.
Found: n

Lookup: Lab note: confirm whether the reported Population Hoechst High Intensity Objects (%) for this compound is below 3%, equality not counting. compound: "Cc1nc(N2CC[C@H](O)C2)ncc1-c1cc(C(F)(F)F)cc2[nH]ncc12"
Found: y

Lookup: hey, is Population Hoechst High Intensity Objects (%) for O=C(c1cc2c(cc1F)OC(c1ccc(F)cc1)(c1ccc(Cl)cc1Cl)O2)N1CCOCC1 (configuration not stated) lower than 3% or not?
Found: n

Lookup: Strictly below 3% in Population Hoechst High Intensity Objects (%)? "Cc1c[nH]c2nccc(Oc3c(F)cc(Nc4cc(Cl)nc(N)n4)cc3F)c12"
Found: n

Lookup: # check: Population Hoechst High Intensity Objects (%) < 3% for CC1=C(C(=O)Nc2cc3cn[nH]c3cc2F)C(c2ccc(C(F)(F)F)cc2)CC(=O)N1 (configuration not stated)
Found: y

Lookup: is_below(Population Hoechst High Intensity Objects (%), 3%) for "CC(C)CC(=O)Nc1[nH]nc2c1CN(C(=O)C1CCN(C)CC1)C2(C)C" ?
Found: y

Lookup: # check: Population Hoechst High Intensity Objects (%) < 3% for "CN1CCN(Cc2ccc(Nc3ncc(Cl)c(Nc4ccccc4S(=O)(=O)N(C)C)n3)cc2)CC1"
Found: y
